# Assay Comment: Kinetic modeling of urinary aPM with a pseudo one-compartment nonlinear mixed-effects model after α-pinene inhalation
# Type: in vivo, human
# Assay Setup: human urine after 10 min α-pinene inhalation; F normalized to the sum of 22 detected metabolites
# Text: In this equation, i represents the participant index, j the urine sample index, C the creatinine-normalized peak response, and t the sample collection time ( h).Ka denotes the first-order generation constant ( h^−1 ), and Ke denotes the first-order elimination rate constant h^−1 . F indicates the fraction of specific aPM relative to absorbed α-pinene. […] Because input data were derived from relative quantification, absolute values of D , V , and F were not available. […]
Property Measured: F (%), fraction of metabolite generated from absorbed α-pinene

| Molecule | Units | Obs Value |
| --- | --- | --- |
| CC1(C)C2CC1C(C(=O)O)=CC2=O (stereo not shown) [aPM1, Myrtenic acid-4-one] | % | 1.15 |
| CC1=CC(OC2OC(C(=O)O)C(O)C(O)C2O)C2CC1C2(C)C (stereo not shown) [aPM2b, verbenol glucuronide] | % | 17.23 |
| CC1(C)C2CC1C(OC1OC(C(=O)O)C(O)C(O)C1O)C=C2C(=O)O (single isomer, unassigned) [aPM5f, Myrtenic acid-4-O-GlcA] | % | 0.29 |
| CC1(C)C2CC1C(OC1OC(C(=O)O)C(O)C(O)C1O)C=C2C(=O)O (single isomer, unassigned) [aPM5c, Myrtenic acid-4-O-GlcA] | % | 1.28 |
